Ref: patent US8877748B2

Kindly state Growth Percent (10 μM) for each of the entries shown.
system: HCT-116; experiment: NCI one-dose screening, colon cancer HCT-116; type: cell-based, human; details: HCT-116, 10 μM
I'd appreciate it if you included the unit after the number.

Write down Growth Percent (10 μM) measured for item Cc1ccc(Nc2cc3c(c4nsnc24)C(=O)c2ccccc2C3=O)cc1
31.32%

Write down Growth Percent (10 μM) measured for item O=C1c2ccccc2C(=O)c2c1cc(N1CCCC1)c1nsnc21
78.67%

Write down Growth Percent (10 μM) measured for item CC(C)Sc1cc2c(c3nsnc13)C(=O)c1ccccc1C2=O
−36.70%

Write down Growth Percent (10 μM) measured for item CN(C)CCNc1cc2c(c3nsnc13)C(=O)c1ccccc1C2=O
−2.07%

====

system: K562cell line; assay: NCI one-dose screening, leukemia K562; format: cell-based, human; conditions: K562, 10 μM
observable: Growth Percent (10 μM) (%)
State just the number; it will be interpreted in %.

Write down Growth Percent (10 μM) measured for item O=C1c2ccccc2C(=O)c2c1cc(N1CCCC1)c1nsnc21
75.50

Write down Growth Percent (10 μM) measured for item Cc1ccc(Nc2cc3c(c4nsnc24)C(=O)c2ccccc2C3=O)cc1
33.45

Write down Growth Percent (10 μM) measured for item CN(C)CCNc1cc2c(c3nsnc13)C(=O)c1ccccc1C2=O
−24.44

Write down Growth Percent (10 μM) measured for item CC(C)Sc1cc2c(c3nsnc13)C(=O)c1ccccc1C2=O
−26.17

====

system: SF-539; experiment: NCI one-dose screening, CNS cancer SF-539; type: cell-based, human; conditions: 10 μM
Threshold 90%. Growth Percent SF-539 below it: condition met. Growth Percent SF-539 at it or above: condition not met.

Regarding CSc1ccc(Sc2cc3c(c4nsnc24)C(=O)c2ccccc2C3=O)cc1 [C43] , kindly confirm whether its Growth Percent SF-539 is beneath 90%.
condition not met

Regarding O=C1c2ccccc2C(=O)c2c1cc(Cl)c1nsnc21 [C2] , kindly confirm whether its Growth Percent SF-539 is beneath 90%.
condition not met

Regarding O=C1c2ccccc2C(=O)c2c1cc(Nc1ccc(Cl)cc1F)c1nsnc21 [C65] , kindly confirm whether its Growth Percent SF-539 is beneath 90%.
condition met

Regarding Cc1cccc(C)c1Sc1cc2c(c3nsnc13)C(=O)c1ccccc1C2=O [C55] , kindly confirm whether its Growth Percent SF-539 is beneath 90%.
condition met

Regarding O=C1c2ccccc2C(=O)c2c1ccc1nsnc21 [C1] , kindly confirm whether its Growth Percent SF-539 is beneath 90%.
condition met

Regarding COc1cccc(Sc2cc3c(c4nsnc24)C(=O)c2ccccc2C3=O)c1 [C46] , kindly confirm whether its Growth Percent SF-539 is beneath 90%.
condition not met

Regarding O=C1c2ccccc2C(=O)c2c1cc(Sc1cccc(Cl)c1)c1nsnc21 [C37] , kindly confirm whether its Growth Percent SF-539 is beneath 90%.
condition met

Regarding O=C1c2ccccc2C(=O)c2c1cc(SCc1ccc(Cl)cc1)c1nsnc21 [C56] , kindly confirm whether its Growth Percent SF-539 is beneath 90%.
condition not met

Regarding O=C1c2ccccc2C(=O)c2c1cc(Sc1ccc(Cl)cc1)c1nsnc21 [C22] , kindly confirm whether its Growth Percent SF-539 is beneath 90%.
condition not met

Regarding CCSc1cc2c(c3nsnc13)C(=O)c1ccccc1C2=O [C16] , kindly confirm whether its Growth Percent SF-539 is beneath 90%.
condition met

Regarding O=C1c2ccccc2C(=O)c2c1cc(Nc1ccc(Cl)cc1)c1nsnc21 [C60] , kindly confirm whether its Growth Percent SF-539 is beneath 90%.
condition met

Regarding Cc1ccccc1Nc1cc2c(c3nsnc13)C(=O)c1ccccc1C2=O [C61] , kindly confirm whether its Growth Percent SF-539 is beneath 90%.
condition met

Regarding O=C1c2ccccc2C(=O)c2c1cc(Sc1ccccc1Br)c1nsnc21 [C27] , kindly confirm whether its Growth Percent SF-539 is beneath 90%.
condition met

Regarding O=C1c2ccccc2C(=O)c2c1cc(Sc1ccc(F)cc1F)c1nsnc21 [C39] , kindly confirm whether its Growth Percent SF-539 is beneath 90%.
condition met

Regarding Cc1ccc(Sc2cc3c(c4nsnc24)C(=O)c2ccccc2C3=O)c(C)c1 [C25] , kindly confirm whether its Growth Percent SF-539 is beneath 90%.
condition not met

Regarding O=C1c2ccccc2C(=O)c2c1cc(SCc1ccccc1)c1nsnc21 [C21] , kindly confirm whether its Growth Percent SF-539 is beneath 90%.
condition met

Regarding COc1ccc(Sc2cc3c(c4nsnc24)C(=O)c2ccccc2C3=O)cc1 [C41] , kindly confirm whether its Growth Percent SF-539 is beneath 90%.
condition not met

Regarding O=C1c2ccccc2C(=O)c2c1cc(Sc1ccccc1)c1nsnc21 [C19] , kindly confirm whether its Growth Percent SF-539 is beneath 90%.
condition not met

Regarding CCOc1cccc(Sc2cc3c(c4nsnc24)C(=O)c2ccccc2C3=O)c1 [C50] , kindly confirm whether its Growth Percent SF-539 is beneath 90%.
condition not met

Regarding O=C1c2ccccc2C(=O)c2c1cc(Sc1ccccn1)c1nsnc21 [C58] , kindly confirm whether its Growth Percent SF-539 is beneath 90%.
condition not met
